Target: Human recombinant PDE2A (hPDE2A) (Homo sapiens)
Construct: His tag (inferred from metal chelate purification); made in house; host or cells: Sf9 insect cells (baculovirus)
Sequence (O00408 whole entry): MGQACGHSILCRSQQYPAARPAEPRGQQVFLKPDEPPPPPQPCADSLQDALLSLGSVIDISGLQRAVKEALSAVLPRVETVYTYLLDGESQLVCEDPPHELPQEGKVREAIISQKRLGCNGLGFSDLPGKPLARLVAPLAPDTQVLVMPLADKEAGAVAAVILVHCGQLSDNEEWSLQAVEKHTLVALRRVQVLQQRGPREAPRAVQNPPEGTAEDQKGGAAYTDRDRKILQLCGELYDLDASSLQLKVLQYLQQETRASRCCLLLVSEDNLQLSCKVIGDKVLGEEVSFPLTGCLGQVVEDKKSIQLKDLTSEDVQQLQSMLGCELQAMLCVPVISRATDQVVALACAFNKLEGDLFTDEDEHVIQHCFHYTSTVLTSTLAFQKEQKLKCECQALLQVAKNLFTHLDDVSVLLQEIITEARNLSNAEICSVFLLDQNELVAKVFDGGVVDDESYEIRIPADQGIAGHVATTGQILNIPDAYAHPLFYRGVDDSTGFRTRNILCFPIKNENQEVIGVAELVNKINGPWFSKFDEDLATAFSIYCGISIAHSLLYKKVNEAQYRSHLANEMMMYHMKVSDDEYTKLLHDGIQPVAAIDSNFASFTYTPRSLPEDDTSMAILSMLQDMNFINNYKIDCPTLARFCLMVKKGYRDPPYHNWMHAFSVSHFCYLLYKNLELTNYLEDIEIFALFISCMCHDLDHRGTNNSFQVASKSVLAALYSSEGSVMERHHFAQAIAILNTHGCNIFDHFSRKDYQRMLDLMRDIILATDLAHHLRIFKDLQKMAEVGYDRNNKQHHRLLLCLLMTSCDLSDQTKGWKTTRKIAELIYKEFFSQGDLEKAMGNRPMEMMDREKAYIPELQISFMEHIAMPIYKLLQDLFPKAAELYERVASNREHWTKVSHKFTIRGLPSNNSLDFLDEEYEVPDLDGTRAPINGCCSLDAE
Assay: In vitro assay PDE2A (SPA, 3H-cGMP hydrolysis)
Format: biochemical
Settings: read-out: hPDE2A pIC50 (converted)
assay.endpoint: IC50 (nM)
Form entry: value (nM) — number only.

compound | IC50 / nM
Cc1ccc(C(=O)N2CC[C@@H](C)[C@H](c3cc(C(F)F)nc4ncnn34)C2)c(C)n1 [Compound 143] | 33.1
Cc1cc(C(=O)N2[C@H]3CC[C@H](c4cc(C(F)F)nc5ncnn45)[C@@H]2CC3)cc(C)n1 (racemic) [Compound 31] | 2.51
Cc1cc2cc(C(=O)N3[C@H]4CC[C@H](c5cc(C(F)F)nc6ncnn56)[C@@H]3CC4)ccc2n1C [Compound 373] | 2.69
O=C(c1nc2ccccc2o1)N1[C@H]2CC[C@H](c3cc(C(F)F)nc4ncnn34)[C@@H]1CC2 [Compound 304] | 39.8
COc1cc(C(=O)N2CC[C@@H](C)[C@H](c3cc(C(F)F)nc4ncnn34)C2)cc(C(C)C)n1 [Compound 122] | 1.86

Prompt: Consider the compound Cc1nc(C(F)(F)F)cc(C(=O)N2CC[C@@H](C)[C@H](c3cc(C(F)F)nc4ncnn34)C2)c1F [Compound 394] and give its measured IC50.
Completion: 9.33

Prompt: Consider the compound Cc1cc(C(=O)N2CC[C@@H](C)[C@H](c3cc(C)nc4ncnn34)C2)cc(OC(F)F)n1 [Compound 275] and give its measured IC50.
Completion: 2.82
